Data provenance: PubChem BioAssay

MEASUREMENT DESCRIPTION: yeast growth modulation, basal conditions, primary screen, YJM789 clinical isolate, OD600, 24 h (AID 1089);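 further: growth of clinical yeast isolate S. cerevisiae YJM 789 seeded 1000 cells per well; test concentration not given here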
APPLIED CONDITIONS: S. cerevisiae YJM789 growth, higher = more signal, called active from +8 up or from −8 down
As shown below, each of these compounds has a reported z-score value.
RECORDED METRIC: z-score

CCC(=O)[C@@]1(O)C(=O)N2C(=C3C(=O)OCC[C@@H]31)N(Cc1ccccc1)C(C)=C(C(=O)OC)[C@H]2c1ccccc1 0.725
O=c1n(Cc2cc3c(cc2Cl)OCO3)c(=O)n2n1CC[C@@H]1C(=NOC[C@@H](O)COCc3ccco3)[C@H]3O[C@H]3[C@@H](O)[C@@H]12 1.52
COC(=O)CC=C[C@@H](C)[C@@H](C=NOC[C@H]1O[C@H](c2ccccc2)C=C[C@@H]1Oc1ccc(OC)cc1)NS(=O)(=O)c1ccc(C)cc1 0.0204
CON=CC[C@@H]1C=C[C@H](OC(C)=O)[C@@H](COC(C)=O)O1 0.586
